# target: T1, Dimeric monkey CD48-mFc (monkey)
# T1 construct: Soluble monkey CD48 with a C-terminal Fc fusion [mFc]; the whole entry is the construct
# T1 chain: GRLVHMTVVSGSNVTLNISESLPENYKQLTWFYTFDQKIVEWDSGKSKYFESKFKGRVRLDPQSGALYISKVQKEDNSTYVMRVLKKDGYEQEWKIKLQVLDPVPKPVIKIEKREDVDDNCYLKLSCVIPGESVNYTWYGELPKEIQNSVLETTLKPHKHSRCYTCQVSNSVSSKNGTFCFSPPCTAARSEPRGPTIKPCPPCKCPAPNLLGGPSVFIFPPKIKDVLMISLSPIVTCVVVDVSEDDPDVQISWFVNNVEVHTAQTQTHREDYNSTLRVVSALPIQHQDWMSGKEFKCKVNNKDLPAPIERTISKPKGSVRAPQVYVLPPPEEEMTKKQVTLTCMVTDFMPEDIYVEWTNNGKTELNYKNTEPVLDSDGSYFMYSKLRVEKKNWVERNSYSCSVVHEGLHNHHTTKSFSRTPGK
# experiment-description: SPR (Biacore), antibody captured by anti-Fc, CD48 in solution, 37 C
outcome-measure: koff (s⁻¹)
Unit s⁻¹ implied. Number only.

Check out these entries, answers already filled in.
binder | koff / s⁻¹
H4H1775P (antibody, human IgG4, V domains shown, Human IgG4 Fc (H4H)) VH: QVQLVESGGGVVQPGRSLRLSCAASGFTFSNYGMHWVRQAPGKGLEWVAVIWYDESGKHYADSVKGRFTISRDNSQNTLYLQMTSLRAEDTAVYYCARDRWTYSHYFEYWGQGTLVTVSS VL: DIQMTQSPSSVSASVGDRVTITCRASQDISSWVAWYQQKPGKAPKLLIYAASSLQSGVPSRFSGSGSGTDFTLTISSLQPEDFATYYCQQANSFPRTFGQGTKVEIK | 3.97e-05
H4H1774P (antibody, human IgG4, V domains shown, Human IgG4 Fc (H4H)) VH: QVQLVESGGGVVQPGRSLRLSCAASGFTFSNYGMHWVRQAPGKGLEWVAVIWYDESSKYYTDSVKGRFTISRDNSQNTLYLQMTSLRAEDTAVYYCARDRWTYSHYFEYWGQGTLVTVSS VL: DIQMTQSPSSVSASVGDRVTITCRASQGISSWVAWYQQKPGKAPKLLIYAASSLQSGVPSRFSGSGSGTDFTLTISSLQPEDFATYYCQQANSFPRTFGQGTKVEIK | 5.4e-05
H4H1771P (antibody, human IgG4, V domains shown, Human IgG4 Fc (H4H)) VH: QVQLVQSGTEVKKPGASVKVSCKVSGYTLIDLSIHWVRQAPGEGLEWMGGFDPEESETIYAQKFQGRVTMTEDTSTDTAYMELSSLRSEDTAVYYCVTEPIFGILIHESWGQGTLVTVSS VL: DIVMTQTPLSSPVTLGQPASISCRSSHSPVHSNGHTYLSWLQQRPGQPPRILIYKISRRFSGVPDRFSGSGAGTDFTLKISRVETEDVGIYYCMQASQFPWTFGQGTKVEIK | 0.000102
H4H1713N (antibody, V domains shown, Human IgG4 Fc (H4H)) VH: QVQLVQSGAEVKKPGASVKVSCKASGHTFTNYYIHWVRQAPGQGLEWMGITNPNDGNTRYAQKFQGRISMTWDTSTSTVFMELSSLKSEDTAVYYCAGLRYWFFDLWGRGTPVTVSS VL: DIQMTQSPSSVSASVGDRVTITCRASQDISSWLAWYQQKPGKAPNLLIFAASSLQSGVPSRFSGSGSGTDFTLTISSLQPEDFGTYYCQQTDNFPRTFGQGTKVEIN | 0.000516

Which koff value belongs to H4H1778P (antibody, human IgG4, V domains shown, Human IgG4 Fc (H4H)) VH: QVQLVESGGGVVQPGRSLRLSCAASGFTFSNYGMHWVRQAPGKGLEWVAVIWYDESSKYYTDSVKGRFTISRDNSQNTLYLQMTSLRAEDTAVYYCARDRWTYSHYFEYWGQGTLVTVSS VL: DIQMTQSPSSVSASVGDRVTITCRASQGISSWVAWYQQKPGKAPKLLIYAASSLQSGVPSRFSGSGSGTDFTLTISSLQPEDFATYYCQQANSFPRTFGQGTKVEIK ?
3.6e-05
